B1: HDV Ribozyme (parent)
chain: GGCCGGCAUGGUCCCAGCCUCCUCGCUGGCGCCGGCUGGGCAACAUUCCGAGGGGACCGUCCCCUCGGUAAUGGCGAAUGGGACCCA

variants of: B1; experiment: self-cleavage, relative activity (ratio to wild type); higher = more cleavage; co-transcriptional
Answer n if self-cleavage is under 0.3, and y if it is 0.3 or more.

Completed entries (count: 3):
**Q:** Reported self-cleavage reaches at least 0.3 for G39U C84U ?
**A:** y

**Q:** Reported self-cleavage reaches at least 0.3 for C15A C85A ?
**A:** y

**Q:** Reported self-cleavage reaches at least 0.3 for C26G G81A ?
**A:** y

New cases:
**Q:** Reported self-cleavage reaches at least 0.3 for C75G A87U ?
**A:** n

**Q:** Reported self-cleavage reaches at least 0.3 for G10A C58G ?
**A:** y

**Q:** Reported self-cleavage reaches at least 0.3 for G11A G17C ?
**A:** n

**Q:** Reported self-cleavage reaches at least 0.3 for G10A U46A ?
**A:** y

**Q:** Reported self-cleavage reaches at least 0.3 for A8C C32A ?
**A:** n

**Q:** Reported self-cleavage reaches at least 0.3 for U37C G55U ?
**A:** y

Value source: the RNAGym collection of RNA variant scans (doi:10.7554/elife.80360)
